test system: COLO 205; test: NCI tumour cell line growth inhibition, 48 h
Active and inactive are the calls of the source. No stated cut-off is given here; in the data, active = GI50 up to about 1.1 µM and inactive = higher.
# GI50 annotations

Example molecules with recorded GI50:
INSERT INTO results (molecule, value) VALUES
  ('CCCCCCN(N)C(=O)CC#N', '96.2 µM (inactive)'),
  ('COc1cc(OC)c(C2(c3c(OC(C)C)c(=O)c3=O)SCCCS2)cc1OC', '> 100 µM (inactive)'),
  ('Cc1ccc(C(=O)N/N=C(\N=N\c2ccccc2[N+](=O)[O-])c2ccc(N(C)C)cc2)cc1', '> 100 µM (inactive)'),
  ('CC1=CCC([C@@](C)(O)CCCC(C)(C)N=C=S)CC1 (some centres undefined)', '16.1 µM (inactive)'),
  ('O=P(NC12CC3CC(CC(C3)C1)C2)(N1CC1)N1CC1', '> 100 µM (inactive)'),
  ('Cc1cccc(NC(=S)Nc2ccc([N+](=O)[O-])cc2)n1', '> 100 µM (inactive)'),
  ('Cc1cnc2c(c1)C(=O)N(c1ccc(Br)cc1)S2(=O)=O', '> 100 µM (inactive)'),
  ('CCOC(=O)c1c[nH]c2c(ccc3nn(C)nc32)c1=O', '38.3 µM (inactive)'),
  ('O=C(CC(=O)c1cccc([N+](=O)[O-])c1)C(=O)Nc1nc([N+](=O)[O-])cs1', '> 100 µM (inactive)'),
  ('O=C(C=P(c1ccccc1)(c1ccccc1)c1ccccc1)c1ccc(-c2cccc([N+](=O)[O-])c2)s1', '14 µM (inactive)');

Asked: Please look up its GI50: O=C(N/S(=N/S(=O)(=O)c1ccc(Br)cc1)C(Cl)(Cl)Cl)c1ccccc1 (centres undefined)
Given back: > 100 µM (inactive)

Asked: Can you handle CCCCCCCCCCCCCC[C@@H](O)[C@H]1CC[C@H]([C@H]2CC[C@H]([C@H](O)CCCCCC[C@@H](O)CC3=C[C@H](C)OC3=O)O2)O1 next?
Given back: > 25 µM (inactive)

Asked: Similarly, Cn1ccnc1CCc1c(Cl)cccc1Cl ?
Given back: > 100 µM (inactive)

Asked: What do you have for O=C(O)c1cc(C(=O)O)cc(N2C(=O)c3ccccc3C2=O)c1 ?
Given back: > 100 µM (inactive)

Asked: Moving on to CCOC(=O)C(c1c[nH]c2ccccc12)(c1c[nH]c2ccccc12)c1c[nH]c2ccccc12
Given back: 15.7 µM (inactive)

Asked: Also need O=C(CC1(O)C(=O)Nc2c(Cl)cc(Cl)cc21)c1cccc([N+](=O)[O-])c1 (centres undefined) , thanks.
Given back: 33.3 µM (inactive)

Asked: Same for COC(=O)C1=C2Nc3ccccc3C23CCN2C(O)C4(CC5CC67CCOC6CCN6CCC8(c9cccc(OC)c9N(C4)C58O)C67)C4OCCC4(C1)C23 (centres undefined)
Given back: > 100 µM (inactive)

Asked: Please do the same for CC(C)(C)[C@H]1CC[C@@](O)(c2ccccc2)CC1.CC(C)(C)[C@H]1CC[C@](O)(c2ccccc2)CC1 as well.
Given back: 17.7 µM (inactive)

Asked: Then this molecule: O=c1oc2c(O)c(O)cc3c(=O)oc4c(O)c(O)cc1c4c23 [ELLAGIC ACID]
Given back: > 10 µM (inactive)

Asked: And C=C1C2CC(OC(C)=O)C3(C)C(c4ccoc4)OC(=O)[C@@H](O)[C@]13OC1C[C@H](OC(C)=O)C(C)(C)[C@H](C(O)C(=O)OC)[C@]12C (some centres undefined) ?
Given back: > 100 µM (inactive)

Asked: Likewise for N=c1oc2ccc(Cl)cc2cc1C(=O)Nc1ccccc1 ?
Given back: > 100 µM (inactive)

Asked: Could you do the same for O/N=C1/C(=C/c2ccc(Cl)c(Cl)c2)CCCC1C(NO)c1ccc(Cl)c(Cl)c1 (centres undefined) , please?
Given back: 18.3 µM (inactive)

Asked: Next molecule: N#Cc1nc(COCCOCc2ccccc2)oc1N
Given back: > 100 µM (inactive)

Asked: One more molecule: Cc1ccc(NC(=O)C(=O)CC(=O)C2CCOC2=O)c(C)c1 (centres undefined)
Given back: > 100 µM (inactive)

Asked: Please answer likewise for CCC(C)(C)c1ccc(Oc2cccc(C(=O)O)c2)cc1
Given back: 38.8 µM (inactive)

Asked: // same read-out, input: COc1cc2c(cc1OC(=O)CC(C)O)C1C(OC2=O)C(OC(C)=O)C=C2CCN(C)[C@H]21 (some centres undefined)
Given back: 81.3 µM (inactive)

Asked: Again, but for CC(C)(C)OC(=O)NCCCCC(N)NC(=O)c1ccccc1 (centres undefined)
Given back: > 100 µM (inactive)

Asked: Check COc1cc2c3c(cc(Cl)nc3c1OC)C(O)(CC(=O)c1ccccc1)C(=O)N2 (centres undefined) too.
Given back: 24.3 µM (inactive)

Asked: Likewise for N#C/C(=C\c1c(O)cc(O)cc1O)C(N)=O ?
Given back: > 100 µM (inactive)
